The measurements presented in this section are drawn from patent US20230220053A1.

Molecular target: T1, SARS-CoV-2-RBD (328-533)-Fc (SARS-CoV-2)
T1 construct: also called RBD-Fc
Test: SPR (Biacore T200), RBD captured on anti-human Fc chip, scFv injected
Would you kindly list kon for each of these binders?
Answers are plain numbers, in M⁻¹ s⁻¹.

{"binder": "2020EP54-H01 scFv (scFv, also called 2020EP054-H01) scFv: QVQLVESGGGVVQPGRSLRLSCAASGFTFSSYGMHWVRQAPGKGLEWVAVISYDGSNKYYADSVKGRFTISRDNSKNTLYLQMNSLRAEDTAVYYCAKGRGWYLDYWGQGTLVTVSSGGGGSGGGGSGGGGSNFMLTQPPSVSVSPGQTASITCSGDKLGDKYACWYQQKPGQSPVLVMYEDYKRPSGIPARFSGSNSGNTATLTISRVEGGDEGDYYCQVWDSRGPEVIFGGGTKLTVL", "measurement unit": "M⁻¹ s⁻¹", "measured value": 84300}
{"binder": "2020EP60-F05 scFv (scFv) scFv: QVQLVESGGGVVQPGGSLRLSCAASGFTFSSYGMHWVRQAPGKGLEWVAVISYDGSNKYYADSVKGRFTISRDNSKNTLYLQMNSLRAEDTAVYYCAKARVALGYFDWLLYDGMDVWGQGTTVTVSSGGGGSGGGGSGGGGSSSELTQPPSVSVSPGQTASITCSGDKLGNKYVFWYQQKPGQSPILVIYQDNRRPSGIPERFSGSNSGNTATLTISGDPAMDEADYYCQAWDSSTVVFGGGTKLTVL", "measurement unit": "M⁻¹ s⁻¹", "measured value": 491000}
{"binder": "2020EP54-B02 scFv (scFv) scFv: QVQLVQSGAEVKKPGASVKVSCKASGYTFIGYYMHWMRQAPGQGLEWMGRINPNSGGTNYAEKFQGRVTMTRDTSISTAYMELSRLTFNDTAVYYCARWDSSSWKFDSWGQGTLVTVSSGGGGSGGGGSGGGGSEIVLTQSPSSLSASVGDRVTITCQASQDISNYLNWYQQKPGKAPKLLIYDASNLETGVPSRFSGSGSGTDFTFTISSLQPEDIATYYCQQYDNLPITFGQGTRLEIK", "measurement unit": "M⁻¹ s⁻¹", "measured value": 34900}
{"binder": "2020EP54-E12 scFv (scFv, also called 2020EP054-E12) scFv: EVQLVESGGGLVQPGGSLRLSCAVTGFIVSSNYMNWVRQAPGKGLEWVSVIYSGGTTYYADSVKGRFTISRDKSKNTLYLQMNNLRAEDTAMYYCATLGNDYGDYGTDYWGQGTLVTVSSGGGGSGGGGSGGGGSQLVLTQPPSVSVSPGQTASISCSGDRLGQKYTSWYQQRPGQSPVLIMYQDNKRPSGIPERFSGSNSGNTATLTISGIQSMDEADYYCQVWDSGSDHAVFGGGTQLTVL", "measurement unit": "M⁻¹ s⁻¹", "measured value": 48900}
{"binder": "2020EP61-A08 scFv (scFv) scFv: QVQLVQSGAEVKKPGASVKVSCKASGYTFTSYYMHWVRQAPGQGLEWMGIINPSGGSTSYAQKFQGRVTMTRDTSTSTVYMELSSLRSEDTAVYYCARESGNYYYDSSGYTFDYWGQGTLVTVSSGGGGSGGGGSGGGGSSYVLTQPLSVSVALGQTARITCGGNNIGSKNVHWYQQKPGQAPVLVIYYDSDRPSGIPERFSGSNSGNTATLTISGTQAMDEADYYCQAWDSSTVVFGGGTKLTVL", "measurement unit": "M⁻¹ s⁻¹", "measured value": 27500}

Please supply kon for each of the following items, keeping them in order.
1. 2020EP53-D06 scFv (scFv) scFv: QVQLVQSGGGVVQPGRSLRLSCAASGFTFSSYAMHWVRQAPGKGLEWVAVISYDGSNKYYADSVKGRFTISRDNSKNTLYLQMNSLRAEDTAVYYCARDGEDGYNYISPFDYWGQGTLVTVSSGGGGSGGGGSGGGGSSYELTQPPSVSVAPGETARITCRGNDIGSKSVHWYQQKPGQAPVLVLYYDSDRPSGIPERFSGSNSGNTATLTISSVEAGDEADYYCQVWDIDVVFGGGTKLTVL
2. 2020EP54-E10 scFv (scFv, also called 2020EP054-E10) scFv: QVQLVQSGAEVRKPGSSVKVSCKASGGTFSSFAISWVRQAPGQGLEWMGGIIPIFDTATYAQNFQGRVRMTADESTNTAYMELSSLTSEDTAVYYCARSTSYYDSRGDYKVGDFDYWGQGTLVTVSSGGGGSGGGGSGGGGSAIRMTQSPSSLSASVGDRVTITCQASQDISNYLNWYQQKPGKAPKLLIYDASNLETGVPSRFSGSGSGTDFTFTISSLQPEDIATYYCQQYDNLPLTFGGGTKVEIK

[out]
251000
477000
